Biological target: PDE7 (type VII phosphodiesterase) (Homo sapiens, UniProt Q13946)
Construct: endogenous in cells
Sequence (Q13946 whole entry): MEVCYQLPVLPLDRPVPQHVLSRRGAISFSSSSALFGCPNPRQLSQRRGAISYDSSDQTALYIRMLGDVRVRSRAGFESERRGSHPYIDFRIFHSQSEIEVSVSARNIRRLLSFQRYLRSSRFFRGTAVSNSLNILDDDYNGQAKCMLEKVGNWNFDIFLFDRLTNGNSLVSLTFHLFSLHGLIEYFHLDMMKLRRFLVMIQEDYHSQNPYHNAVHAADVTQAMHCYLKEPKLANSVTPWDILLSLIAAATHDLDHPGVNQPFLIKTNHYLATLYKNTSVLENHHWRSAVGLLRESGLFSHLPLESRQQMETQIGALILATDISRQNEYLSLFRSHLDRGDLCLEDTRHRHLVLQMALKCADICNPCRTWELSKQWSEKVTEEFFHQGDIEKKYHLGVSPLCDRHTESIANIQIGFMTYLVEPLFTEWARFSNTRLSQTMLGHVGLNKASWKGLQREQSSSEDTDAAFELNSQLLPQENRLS
Test: PDE7 inhibiting activity (3H-cAMP hydrolysis, active fraction from MOLT-4 cells)
Settings: PDE7 fraction from MOLT-4 cells, 0.064 μM cAMP, 10 μM rolipram present, 2 hours at 25° C.; read-out: IC50 values for phosphodiesterase inhibiting activities (PDE7)
pIC50: −log10 of the molar value.
Provide the reported pIC50 of each item.

COc1cc(S(=O)(=O)N(C)CCN(C)C)ccc1-c1nc2c(c(C3CCCCC3)nn2C)c(=O)[nH]1 [Example 158, monomethanesulfonate]; ≥ 6.00

Dear reader, for each entry below, please note its pIC50.
1. CCN1CCCN(c2ccc(-c3nc4c(C)nn(C5CCCCC5)c4c(=O)[nH]3)c(OC)c2)CC1
2. Cc1nn(C2CCCCC2)c2c(=O)[nH]c(-c3ccccn3)nc12

1. ≥ 6.00
2. ≥ 6.00

Dear reader, for each entry below, please note its pIC50.
1. CNC1CCN(S(=O)(=O)c2ccc(-c3nc4c(C)nn(C5CCCCC5)c4c(=O)[nH]3)c(OC)c2)CC1
2. COc1cc(N2CCN(C)CC2)ccc1-c1nc2c(c(C3CCCCC3)nn2C)c(=O)[nH]1 [Example 27]
3. CNC1CCN(c2cc(OC)c(-c3nc4c(C)nn(C5CCCCC5)c4c(=O)[nH]3)cc2F)CC1
4. CNS(=O)(=O)c1ccc(-c2nc3c(c(C4CCCCC4)nn3C)c(=O)[nH]2)c(OC)c1
5. COc1cc(S(=O)(=O)N2CCS(=O)(=O)CC2)ccc1-c1nc2c(c(C3CCCCC3)nn2C)c(=O)[nH]1
6. CCn1nc(C2CCCCC2)c2c(=O)[nH]c(-c3ccc(S(=O)(=O)N4CCC(O)CC4)cc3OC)nc21

["≥ 6.00", "≥ 8.00", "≥ 6.00", "≥ 6.00", "≥ 6.00", "≥ 6.00"]

Dear reader, for each entry below, please note its pIC50.
1. COc1cc(N2CCC(OC)CC2)ccc1-c1nc2c(c(C3CCCCC3)nn2C)c(=O)[nH]1 [Example 62, monomethanesulfonate]
2. COc1cc(S(=O)(=O)N2CCCN(C)CC2)ccc1-c1nc2c(C)nn(C3CCCCC3)c2c(=O)[nH]1
3. COc1cc(O[C@@H]2CCOC2)ccc1-c1nc2c(c(C3CCCCC3)nn2C)c(=O)[nH]1
4. COc1cc(S(=O)(=O)N2CCCN(C)CC2)ccc1-c1nc2c(c(C3CCCCC3)nn2C)c(=O)[nH]1 [Example 163, monomethanesulfonate]
5. COc1cc(N(C)CCO)ccc1-c1nc2c(C)nn(C3CCCCC3)c2c(=O)[nH]1

1. ≥ 8.00
2. ≥ 6.00
3. ≥ 6.00
4. ≥ 8.00
5. ≥ 8.00

----------
Molecular target: PDE7 (type VII phosphodiesterase) (Homo sapiens, UniProt Q13946)
Construct: endogenous in cells
Test: PDE7 inhibiting activity (3H-cAMP hydrolysis, active fraction from MOLT-4 cells)
Details: PDE7 fraction from MOLT-4 cells, 0.064 μM cAMP, 10 μM rolipram present, 2 hours at 25° C.; read-out: IC50 values for phosphodiesterase inhibiting activities (PDE7)
pIC50: −log10 of the molar value.
Provide the reported pIC50 of each item.

CCOc1cc(S(=O)(=O)N2CCCN(C)CC2)ccc1-c1nc2c(C)nn(C3CCCCC3)c2c(=O)[nH]1; ≥ 6.00
COc1cc(NC2CCOCC2)ccc1-c1nc2c(C)nn(C3CCCCC3)c2c(=O)[nH]1; ≥ 6.00
Cc1nn(C2CCCCC2)c2c(=O)[nH]c(-c3ccc(N)cn3)nc12; ≥ 6.00
COCCNc1ccc(-c2nc3c(C)nn(C4CCCCC4)c3c(=O)[nH]2)c(OC)c1; ≥ 8.00
CCOc1cc(N2CCC(NC)CC2)ccc1-c1nc2c(C)nn(C3CCCCC3)c2c(=O)[nH]1; ≥ 8.00

Dear reader, for each entry below, please note its pIC50.
1. COc1cc(NC2CCN(C)CC2)ccc1-c1nc2c(C)nn(C3CCCCC3)c2c(=O)[nH]1
2. CCn1nc(C2CCCCC2)c2c(=O)[nH]c(-c3ccc(S(=O)(=O)N4CCCN(C)CC4)cc3OC)nc21

1. ≥ 8.00
2. ≥ 6.00

Dear reader, for each entry below, please note its pIC50.
1. COc1cc(S(=O)(=O)N2CCCNCC2)ccc1-c1nc2c(c(C3CCCCC3)nn2C)c(=O)[nH]1 [Example 161, monomethanesulfonate]
2. Cc1nn(C2CCCCC2)c2c(=O)[nH]c(-c3ccc(N)cc3)nc12
3. CNC1CCN(Cc2ccc(-c3nc4c(C)nn(C5CCCCC5)c4c(=O)[nH]3)c(OC)c2)CC1
4. COc1cc(N2CCCN(C)CC2)ccc1-c1nc2c(c(C3CCCCC3)nn2C)c(=O)[nH]1 [Example 136, monomethanesulfonate]

≥ 6.00
≥ 6.00
≥ 6.00
≥ 8.00

Dear reader, for each entry below, please note its pIC50.
1. CCOC(=O)Nc1ccc(-c2nc3c(c(C4CCCCC4)nn3C)c(=O)[nH]2)c(OC)c1
2. COc1cc(C2CCN(C)CC2)ccc1-c1nc2c(C)nn(C3CCCCC3)c2c(=O)[nH]1
3. CCOc1ccccc1-c1nc2c(C)nn(C3CCCCC3)c2c(=O)[nH]1
4. COc1ccccc1-c1nc2c(c(C3CCCCC3)nn2C)c(=O)[nH]1
5. COc1cc(CN2CCC(C(=O)O)CC2)ccc1-c1nc2c(C)nn(C3CCCCC3)c2c(=O)[nH]1
6. COc1cc(S(=O)(=O)NCCCO)ccc1-c1nc2c(c(C3CCCCC3)nn2C)c(=O)[nH]1

1. ≥ 8.00
2. ≥ 6.00
3. ≥ 6.00
4. ≥ 6.00
5. ≥ 6.00
6. ≥ 6.00

Identify measured pIC50 associated with `COc1cc(S(=O)(=O)N2CCC(O)CC2)ccc1-c1nc2c(c(C3CCCCC3)nn2C)c(=O)[nH]1`
≥ 8.00

----------
Target: PDE7 (type VII phosphodiesterase) (Homo sapiens)
Construct: endogenous in cells
Experiment: PDE7 inhibiting activity (3H-cAMP hydrolysis, active fraction from MOLT-4 cells)
Conditions: PDE7 fraction from MOLT-4 cells, 0.064 μM cAMP, 10 μM rolipram present, 2 hours at 25° C.; read-out: IC50 values for phosphodiesterase inhibiting activities (PDE7)
pIC50: −log10 of the molar value.
assay.metric: pIC50

Solved entries (count: 2):
COCCN(C)c1ccc(-c2nc3c(c(C4CCCCC4)nn3C)c(=O)[nH]2)c(OC)c1; ≥ 8.00
COc1cc(S(=O)(=O)N2CCOCC2)ccc1-c1nc2c(c(C3CCCCC3)nn2C)c(=O)[nH]1; ≥ 8.00

Dear reader, for each entry below, please note its pIC50.
1. COc1cc(S(=O)(=O)NCCO)ccc1-c1nc2c(C)nn(C3CCCCC3)c2c(=O)[nH]1
2. CNCCNS(=O)(=O)c1ccc(-c2nc3c(C)nn(C4CCCCC4)c3c(=O)[nH]2)c(OC)c1
3. COc1cc(N2CCC(N)CC2)ccc1-c1nc2c(c(C3CCCCC3)nn2C)c(=O)[nH]1 [Example 185, monomethanesulfonate]
4. COc1cc(C2=CCN(C)CC2)ccc1-c1nc2c(C)nn(C3CCCCC3)c2c(=O)[nH]1
5. COc1cc(S(=O)(=O)N2CCCNCC2)ccc1-c1nc2c(C)nn(C3CCCCC3)c2c(=O)[nH]1 [Example 203, monomethanesulfonate]

1: ≥ 6.00; 2: ≥ 6.00; 3: ≥ 8.00; 4: ≥ 6.00; 5: ≥ 6.00

Dear reader, for each entry below, please note its pIC50.
1. COc1cc(N2CCN(C)CC2)ccc1-c1nc2c(C)nn(C3CCCCC3)c2c(=O)[nH]1
2. CNCCN(C)c1ccc(-c2nc3c(c(C4CCCCC4)nn3C)c(=O)[nH]2)c(OC)c1 [Example 84, monomethanesulfonate]

1: ≥ 6.00; 2: ≥ 8.00

----------
Provide the reported IC50 of each item.
Molecular target: PDE7 (type VII phosphodiesterase) (Homo sapiens)
Construct: endogenous in cells
Experiment: PDE7 inhibiting activity (3H-cAMP hydrolysis, active fraction from MOLT-4 cells)
Settings: PDE7 fraction from MOLT-4 cells, 0.064 μM cAMP, 10 μM rolipram present, 2 hours at 25° C.; read-out: IC50 values for phosphodiesterase inhibiting activities (PDE7)

Dear reader, for each entry below, please note its IC50.
1. CCOc1cc(N2CCC(N)CC2)ccc1-c1nc2c(C)nn(C3CCCCC3)c2c(=O)[nH]1
2. CCNC1CCN(c2ccc(-c3nc4c(c(C5CCCCC5)nn4C)c(=O)[nH]3)c(OC)c2)CC1
3. COc1cc(C(=O)N2CCN(C)CC2)ccc1-c1nc2c(c(C3CCCCC3)nn2C)c(=O)[nH]1 [Example 67, monomethanesulfonate]
4. COc1cc(N2CCCN(C(C)=O)CC2)ccc1-c1nc2c(C)nn(C3CCCCC3)c2c(=O)[nH]1
5. COc1cc(N2CCN(C)C2=O)ccc1-c1nc2c(c(C3CCCCC3)nn2C)c(=O)[nH]1
6. COc1cc(C(=O)N2CCOCC2)ccc1-c1nc2c(c(C3CCCCC3)nn2C)c(=O)[nH]1

≤ 10 nM
≤ 10 nM
≤ 1000 nM
≤ 1000 nM
≤ 10 nM
≤ 1000 nM

meta.source: patent US7268128B2
